Data provenance: PubChem BioAssay AID2060899

System: 565726-208-R1-J5-PDC complex spheroids, growth inhibition;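 further: spheroids exposed to compounds for seven days before readout; 100% = DMSO vehicle control viability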
PROCEDURE SUMMARY: Anticancer human tumor 565726-208-R1-J5-PDC patient-derived pancreatic adenocarcinoma cell line growth inhibition [RAS]
RUN PARAMETERS: second compound 0.316 µM; first compound 0.316 µM; hits give low values
Overview of reported viability, T/C across a group of molecules:

Solved cases below.
MOLECULE: Cc1nc(N2CCC3(CC2)COC(C)C3N)c(CO)nc1Sc1ccnc(N)c1Cl (stereo not given) + C#Cc1c(F)ccc2cc(O)cc(-c3ncc4c(N5CC6CCC(C5)N6)nc(OCC56CCCN5CC(F)C6)nc4c3F)c12
EXPERIMENTAL READOUT: viability, T/C
RESULT: 74.5%
--
MOLECULE: O=C(c1ccc(F)c(F)c1Nc1ccc(I)cc1F)N1CC(O)([C@@H]2CCCCN2)C1 + C=CC(=O)N1CCN(c2nc(OCC3CCCN3C)nc3c(F)c(-c4nc(N)cc(C)c4C(F)(F)F)c(Cl)cc23)C(C)C1
EXPERIMENTAL READOUT: viability, T/C
RESULT: 56.7%
--
MOLECULE: CC(Nc1ccc2c(c1)OCCn1cc(N3C(=O)OCC3C(F)F)nc1-2)C(N)=O (stereo not given) + C#Cc1c(F)ccc2cc(O)cc(-c3ncc4c(N5CC6CCC(C5)N6)nc(OCC56CCCN5CC(F)C6)nc4c3F)c12
EXPERIMENTAL READOUT: viability, T/C
RESULT: 72.9%

Entry under test: CC1(O)CCCC1n1c(=O)c(C(F)F)cc2cnc(NC3CCN(S(C)(=O)=O)CC3)nc21 (stereo not given) + C=CC(=O)N1CCN(c2nc(OCC3CCCN3C)nc3c(F)c(-c4nc(N)cc(C)c4C(F)(F)F)c(Cl)cc23)C(C)C1 . Its viability, T/C was 63%

Entry under test: CCN1CCN(Cc2ccc(Nc3ncc(F)c(-c4cc(F)c5nc(C)n(C(C)C)c5c4)n3)nc2)CC1 + C#Cc1c(F)ccc2cc(O)cc(-c3ncc4c(N5CC6CCC(C5)N6)nc(OCC56CCCN5CC(F)C6)nc4c3F)c12 . Its viability, T/C was 77.5%
